study-target: E. coli gyrase GyrB^K447W (Escherichia coli, UniProt P0AES4+P0AES6, K447W)
Construct: alternative cryo-EM approach involving full-length E. coli gyrase; 10-His (cleaved yes); Twin-Strep (cleaved yes)
method-notes: DNA gyrase cleavage assay (CC50, % cleaved DNA)
experimental-conditions: GyrB^K447W; mean ± s.d. of triplicate
quantity: pEC50
# pEC50 = -log10(concentration in molar units)

Recorded pEC50, per entry:
smiles-notation	study-target	pEC50
COc1c(NC(=O)c2ccc(NC(=O)c3ccc(NC(=O)[C@H](Cc4c[nH]nn4)NC(=O)c4ccc(NC(=O)c5ccc6cc(O)ccc6c5)cc4)cn3)c(OCCN)c2O)ccc(C(=O)O)c1O	E. coli gyrase GyrB^K447W (Escherichia coli, UniProt P0AES4+P0AES6, K447W)	6.60
CC(C)Oc1c(NC(=O)c2ccc(NC(=O)[C@H](Cc3c[nH]nn3)NC(=O)c3ccc(NC(=O)c4ccc(C#N)cc4)cn3)cn2)ccc(C(=O)Nc2ccc(C(=O)O)cc2)c1O	E. coli gyrase GyrB^K447W (Escherichia coli, UniProt P0AES4+P0AES6, K447W)	6.39

Turning now to a further record.
Task: State the recorded pEC50 for this entry: `COc1c(NC(=O)c2ccc(NC(=O)c3ccc(NC(=O)[C@H](CC#N)NC(=O)c4ccc(NC(=O)/C(C)=C/c5ccc(O)cc5)cc4)cc3)c(OC)c2O)ccc(C(=O)O)c1O`
Output: 6.34

Data provenance: paper PMC9886550
